Below: a set of entries, each annotated with reported folding stability dG unfold.
assay: folding stability dG unfold from chymotrypsin proteolysis; higher = more stable
Quantity name: folding stability dG unfold

• SAGGSAGGMVTSTDPATGIVYSLDPTTGVWSAQTVTLPPITIPVSEVPELLKALPPGTPILVLASAGGSAGG [r6_104_JUSTAS] = 1.16 kcal/mol
• SAGGKTVPIMFPFDSPDQIEEIIEELAKPGFDDVKPERIEPEPPPDGNYYFPVRIEVDPKNGKIEITFSAGG [r13_174_TrROS] = 0.185 kcal/mol
• SAGGSAGGSTALVYKNGVTVTFPVFFPDTAPAVVTLSIPSPEEAAAAVAALRAAGHAVTVEPLASAGGSAGG [r6_872_JUSTAS] = 1.48 kcal/mol
• SAGGSAGGSAGGMAASVSPSVSYDPNTPVTNTKYTITTDGGVTPTTVVTPVVTPPPSPALSAGGSAGGSAGG [r7_413_JUSTAS] = 0.149 kcal/mol
• SAGDEIEEKVKEILEKLNPDEPVVIKRTKDGRILAENPKTGKFIIFDISPDGTIKIVKVVPAEEAKKLGSAG [r5_852_TrMRF] = 2.52 kcal/mol
• SAGGSAGGSAGGGNLALPPRYRITVRIEKDGSTSTVEFDSEEELAALDDPGLTVTEVREESAGGSAGGSAGG [r7_793_JUSTAS] = 1.18 kcal/mol
• SAGGSAGGSAGKAKIVKIEKVKNKNGETYYIIKLEGKKEIFVIKDKNGKKKKIPLKELKPSAGGSAGGSAGG [r17_286_TrROS_Hall] = 2.37 kcal/mol
• SAGGSAGGSAGMELKIKVTLTPPGAPVPLTLELEVESEEEARERLEKEYPDREIELEVLESAGGSAGGSAGG [r17_428_JUSTAS] = 0.354 kcal/mol
• SAGGSAGGFFHIEIEWRPVKLEDLPEEDAANGKELKPGDEIWVIVKIEIYPMPPPKFDKDGELNSAGGSAGG [r6_547_TrROS] = 3.31 kcal/mol
• SAGGSAGGSAGGMTPEEIEAALQKAREENSEDEEFTVTVTDPETGEVLTIRIDPNSVTIESAGGSAGGSAGG [r7_45_JUSTAS] = -0.0816 kcal/mol
• SAGGSAGGSAGGMTPEEIEALKARPLPDGSPILSIDREGNVYTITTARDPSVRTTVIPAESAGGSAGGSAGG [r7_995_JUSTAS] = -0.853 kcal/mol
• SAGGSAMTVTKVGSETKTDPAKGIVTTTEITKLPTGGLTKTVTTTTIEGGKVKSSTTTTTAIPVGTSAGGSA [r15_283_JUSTAS] = 0.266 kcal/mol

src = the supplement of paper PMC12764529
